# Tested on: P. falciparum (NF54 or 3D7 strain)
# procedure.text: Assay for P. falciparum proliferation in infected human blood cells (SYBR Green)
# Format: cell-based, Plasmodium falciparum
# test.context: Plasmodium falciparum, Erythrocyte, 72 h, NF54 or 3D7 infected human erythrocytes, 72 hours; read-out: EC50 (nM), inhibitory efficacy in delaying P. falciparum proliferation in infected human blood cells
observed.property: EC50

Per the records, this molecule ( Cc1nnc(-c2ccc(-c3cnc4cnc(C(=O)N(C)c5ccc(Cl)nc5)cn34)cn2)o1 ) has EC50 equal to > 9280 nM

Per the records, this molecule ( CN(C(=O)c1cn2c(-c3ccc(C(F)(F)F)cc3)cnc2cn1)c1ccc(C#N)cc1F ) has EC50 equal to 76 nM

Per the records, this molecule ( COc1ccc(N(C)C(=O)c2cn3c(-c4ccc(C(F)(F)F)cc4)cnc3cn2)nn1 ) has EC50 equal to 5020 nM

Per the records, this molecule ( CN(C(=O)c1cn2c(-c3ccc(C(F)(F)F)cc3)cnc2cn1)c1ccc(Cl)nn1 ) has EC50 equal to > 10000 nM

* * *

# Test system: P. falciparum (NF54 or 3D7 strain)
# procedure.text: Assay for P. falciparum proliferation in infected human blood cells (SYBR Green)
# Type: cell-based, Plasmodium falciparum
# test.context: Plasmodium falciparum, Erythrocyte, 72 h, NF54 or 3D7 infected human erythrocytes, 72 hours; read-out: EC50 (nM), inhibitory efficacy in delaying P. falciparum proliferation in infected human blood cells
Please go through the items and note down their EC50.

Per the records, this compound ( CN(C(=O)c1cn2c(-c3ccc(C(F)(F)F)cc3)cnc2cn1)c1cccc2nncn12 ) has EC50 equal to > 10000 nM

Per the records, this compound ( CN(C(=O)c1cn2c(-c3ccncc3)cnc2cn1)c1ccc(C#N)cc1 ) has EC50 equal to > 10000 nM

Per the records, this compound ( COC[C@@H]1CCCN1c1ccc(N(C)C(=O)c2cn3c(-c4ccc(C(F)(F)F)cc4)cnc3cn2)cn1 ) has EC50 equal to > 10000 nM

Per the records, this compound ( O=C(Nc1ccc(S(=O)(=O)Nc2nccs2)cc1)c1cn2c(-c3ccc(C(F)(F)F)cc3)cnc2cn1 ) has EC50 equal to > 8860 nM

* * *

# Test system: P. falciparum (NF54 or 3D7 strain)
# procedure.text: Assay for P. falciparum proliferation in infected human blood cells (SYBR Green)
# Type: cell-based, Plasmodium falciparum
# test.context: Plasmodium falciparum, Erythrocyte, 72 h, NF54 or 3D7 infected human erythrocytes, 72 hours; read-out: EC50 (nM), inhibitory efficacy in delaying P. falciparum proliferation in infected human blood cells
observed.property: EC50 (nM)
The answer is to be given in nM; state only the numeric part.

Per the records, this compound ( CN(C(=O)c1cn2c(-c3ccc(OC(F)(F)F)cc3)cnc2cn1)c1ccc(C#N)cc1 ) has EC50 equal to 230

Per the records, this compound ( CNc1ccc(-c2cnc3cnc(C(=O)N(C)c4ccc(C#N)cc4)cn23)cn1 ) has EC50 equal to 310

Per the records, this compound ( CC(C)S(=O)(=O)Nc1ccc(-c2cnc3cnc(C(=O)N(C)c4ccc(C#N)cc4)cn23)cc1 ) has EC50 equal to 7020

Per the records, this compound ( Cc1n[nH]c2ccc(-c3cnc4cnc(C(=O)N(C)c5ccc(C#N)cc5)cn34)cc12 ) has EC50 equal to 291

Per the records, this compound ( CN(C(=O)c1cn2c(-c3ccc(C(F)(F)F)cc3)cnc2cn1)c1cccc(F)n1 ) has EC50 equal to 2010

* * *

Please go through the items and note down their EC50.
# System: P. falciparum (NF54 or 3D7 strain)
# procedure.text: Assay for P. falciparum proliferation in infected human blood cells (SYBR Green)
# Type: cell-based, Plasmodium falciparum
# test.context: Plasmodium falciparum, Erythrocyte, 72 h, NF54 or 3D7 infected human erythrocytes, 72 hours; read-out: EC50 (nM), inhibitory efficacy in delaying P. falciparum proliferation in infected human blood cells

Per the records, this molecule ( NC(=O)c1ccc(NC(=O)c2cn3c(-c4ccc(C(F)(F)F)cc4)cnc3cn2)nc1 ) has EC50 equal to > 10000 nM

Per the records, this molecule ( CC1CCN(c2nc(-c3cnc4cnc(C(=O)N(C)c5ccc(C#N)cc5)cn34)cs2)CC1 ) has EC50 equal to > 10000 nM

Per the records, this molecule ( CCc1ccnc(NC(=O)c2cn3c(-c4ccc(C(F)(F)F)cc4)cnc3cn2)c1 ) has EC50 equal to > 5190 nM

* * *

# Test system: P. falciparum (NF54 or 3D7 strain)
# procedure.text: Assay for P. falciparum proliferation in infected human blood cells (SYBR Green)
# Type: cell-based, Plasmodium falciparum
# test.context: Plasmodium falciparum, Erythrocyte, 72 h, NF54 or 3D7 infected human erythrocytes, 72 hours; read-out: EC50 (nM), inhibitory efficacy in delaying P. falciparum proliferation in infected human blood cells
observed.property: EC50

Per the records, this compound ( CN(C(=O)c1cn2c(-c3ccc(C(F)(F)F)cc3)cnc2cn1)c1ccc(-c2cnn(C)c2)cc1 [Compound 51] ) has EC50 equal to > 9720 nM

Per the records, this compound ( CN(C(=O)c1cn2c(-c3ccc(Cl)cc3Cl)cnc2cn1)c1ccc(C#N)cc1 [Compound 20] ) has EC50 equal to > 10000 nM

Per the records, this compound ( CNc1ccc(-c2cnc3cnc(C(=O)N(C)c4ccc(Cl)nc4)cn23)cn1 [Compound 407] ) has EC50 equal to > 8970 nM

Per the records, this compound ( CC(=O)Nc1ccc(-c2cnc3cnc(C(=O)N(C)c4ccc(C)cn4)cn23)cn1 [Compound 373] ) has EC50 equal to > 9880 nM

* * *

# Tested on: P. falciparum (NF54 or 3D7 strain)
# procedure.text: Assay for P. falciparum proliferation in infected human blood cells (SYBR Green)
# Format: cell-based, Plasmodium falciparum
# test.context: Plasmodium falciparum, Erythrocyte, 72 h, NF54 or 3D7 infected human erythrocytes, 72 hours; read-out: EC50 (nM), inhibitory efficacy in delaying P. falciparum proliferation in infected human blood cells
observed.property: EC50

Per the records, this compound ( NC(=O)c1nc[nH]c1NC(=O)c1cn2c(-c3ccc(C(F)(F)F)cc3)cnc2cn1 [Compound 404] ) has EC50 equal to > 7570 nM

Per the records, this compound ( CN(C(=O)c1ccc(OC(F)(F)F)cc1)c1cn2c(-c3ccc(C(F)(F)F)cc3)cnc2cn1 [Compound 366] ) has EC50 equal to > 6250 nM

Per the records, this compound ( CN(C(=O)c1cn2c(-c3ccc4nonc4c3)cnc2cn1)c1ccc(C#N)cc1 [Compound 202] ) has EC50 equal to > 10000 nM

* * *

# Test system: P. falciparum (NF54 or 3D7 strain)
# procedure.text: Assay for P. falciparum proliferation in infected human blood cells (SYBR Green)
# Assay type: cell-based, Plasmodium falciparum
# test.context: Plasmodium falciparum, Erythrocyte, 72 h, NF54 or 3D7 infected human erythrocytes, 72 hours; read-out: EC50 (nM), inhibitory efficacy in delaying P. falciparum proliferation in infected human blood cells
Please go through the items and note down their EC50.
The answer is to be given in nM; state only the numeric part.

Per the records, this compound ( COc1ccc(-c2cnc3cnc(C(=O)N(C)c4ccc(Cl)nc4)cn23)cn1 [Compound 336] ) has EC50 equal to 6930

Per the records, this compound ( Cc1nnc(-c2ccc(-c3cnc4cnc(C(=O)N(C)c5ccc(C#N)cc5)cn34)cc2)o1 [Compound 163] ) has EC50 equal to 2630

* * *

# System: P. falciparum (NF54 or 3D7 strain)
# procedure.text: Assay for P. falciparum proliferation in infected human blood cells (SYBR Green)
# Type: cell-based, Plasmodium falciparum
# test.context: Plasmodium falciparum, Erythrocyte, 72 h, NF54 or 3D7 infected human erythrocytes, 72 hours; read-out: EC50 (nM), inhibitory efficacy in delaying P. falciparum proliferation in infected human blood cells
Please go through the items and note down their EC50.

Per the records, this molecule ( O=C(c1cn2c(-c3ccc(C(F)(F)F)cc3)cnc2cn1)N1CCOCC1 [Compound 374] ) has EC50 equal to > 9820 nM

Per the records, this molecule ( CN(C(=O)c1cn2c(-c3ccc(C(F)(F)F)cc3)cnc2cn1)c1ccccc1OC(F)F [Compound 346] ) has EC50 equal to 242 nM

Per the records, this molecule ( CN(C(=O)c1cn2c(-c3cn[nH]c3)cnc2cn1)c1ccc(C#N)cc1 [Compound 200] ) has EC50 equal to > 10000 nM

Per the records, this molecule ( COc1ccc(-c2cnc3cnc(C(=O)N(C)c4ccc(F)cc4)cn23)cc1 [Compound 69] ) has EC50 equal to 85 nM

Per the records, this molecule ( COC(=O)Nc1ccc(-c2cnc3cnc(C(=O)N(C)c4ccc(C#N)cc4)cn23)cn1 [Compound 260] ) has EC50 equal to 399 nM

Per the records, this molecule ( CNc1nnc(-c2ccc(-c3cnc4cnc(C(=O)N(C)c5ccc(Cl)nc5)cn34)cc2)s1 [Compound 262] ) has EC50 equal to 97 nM

Per the records, this molecule ( CN(C(=O)c1cn2c(-c3ccc(C(F)(F)F)cc3)cnc2cn1)c1nccn1C [Compound 174] ) has EC50 equal to 4750 nM

Per the records, this molecule ( N#Cc1ccc(N(CCN)C(=O)c2cn3c(-c4ccc(C(F)(F)F)cc4)cnc3cn2)cc1 [Compound 386] ) has EC50 equal to > 10000 nM

Per the records, this molecule ( CN(C)c1ccc(N(C)C(=O)c2cn3c(-c4ccc(C(F)(F)F)cc4)cnc3cn2)cn1 [Compound 394] ) has EC50 equal to 4910 nM

Per the records, this molecule ( Cc1cc(N(C)C(=O)c2cn3c(-c4ccc(C(F)(F)F)cc4)cnc3cn2)ccn1 [Compound 299] ) has EC50 equal to 1130 nM

Per the records, this molecule ( CCOC(=O)Nc1ccc(-c2cnc3cnc(C(=O)N(C)c4ccc(C#N)cc4)cn23)cc1 [Compound 254] ) has EC50 equal to 67 nM

FYI, the data here is from patent US20150291598A1.
